Below: a set of entries, each annotated with reported T/C (rate of life prolongation).
system: Vincristine-resistant strain P388/VCR cells of mouse leukemia P388 cells; experiment: Potentiating effect on vincristine in mice having vincristine-resistant mouse leukemia (survival); assay type: in vivo, mouse (female CDFI mice); details: compound 30 mg/kg + vincristine 100 ug/kg, peritoneal, once a day for 5 days; control = 100
Express your answer in %, writing the number without its unit.

[Q] Retrieve T/C (rate of life prolongation) measured for COc1ccc(C(c2ccc(OC)cc2)N2CCN(CC(O)COc3cccc4ncccc34)CC2)cc1 (centres unmarked) [Example 59] and print it.
[A] 125

###

Below: a set of entries, each annotated with reported T/C (rate of life prolongation).
test system: Vincristine-resistant strain P388/VCR cells of mouse leukemia P388 cells; assay: Potentiating effect on vincristine in mice having vincristine-resistant mouse leukemia (survival); assay type: in vivo, mouse (female CDFI mice); details: compound 30 mg/kg + vincristine 100 ug/kg, peritoneal, once a day for 5 days; control = 100
Express your answer in %, writing the number without its unit.

Worked cases, T/C (rate of life prolongation) given:
COc1ccc2c(OCC(O)CN3CCN(C(=O)C(c4ccccc4)c4ccccc4)CC3)cccc2n1 (stereo not shown); 115
CN(CCN(C)C(c1ccccc1)c1ccccc1)CC(O)COc1cccc2ncccc12 (stereo not shown); 100
OC(COc1cccc2ncccc12)CN1CCC(C(O)(c2ccccc2)c2ccccc2)CC1 (stereo not shown); 123

Next compound, T/C (rate of life prolongation) to be filled in.
[Q] Retrieve T/C (rate of life prolongation) measured for OC(COc1cccc2ncccc12)CN1CCCN(C(c2ccccc2)c2ccccc2)CC1 (stereo not shown) and print it.
[A] 107
